- Test target: Gag-Pol polyprotein (Human immunodeficiency virus type 1 group M subtype B (isolate HXB2), UniProt P04585)
- Experiment notes: HIV-1 RT In-Vitro Assay
- Protocol: The reaction mixture was set with template primer complex, RT enzyme and dNTPs in a lysis buffer with or without inhibitors. The reaction mixture was incubated at 37 °C for 1 h and then transferred to streptavidine-coated microtitre plate (MTP). The biotin-labeled dNTPs that were incorporated in the template due to activity of RT, bound to streptavidine. […] The absorbance of the sample was determined as an optical density (OD) at 405 nm using a micro titer plate ELISA reader.
Endpoint: IC50 (µM)
Number in µM, nothing else.

Examples with their reported IC50 follow.
[[record]]
molecule = "CC1CC(=O)Nc2ccccc2N1C(=O)c1cccc(Cl)c1 (centres undefined)"
uom = "µM"
readout_number = 6.87

[[record]]
molecule = "CC1CC(=O)Nc2ccccc2N1C(=O)c1ccc(Br)cc1 (centres undefined)"
uom = "µM"
readout_number = 68.7

[[record]]
molecule = "Cc1ccccc1C(=O)N1c2ccccc2NC(=O)CC1C (centres undefined)"
uom = "µM"
readout_number = 14.3


Measured IC50 of Cc1cccc(C(=O)N2c3ccccc3NC(=O)CC2C)c1 (centres undefined) : 26.4

Measured IC50 of CC1CC(=O)Nc2ccccc2N1C(=O)c1ccc(Cl)cc1 (centres undefined) : 38.3

Measured IC50 of CC1CC(=O)Nc2ccccc2N1C(=O)c1ccccc1Br (centres undefined) : 92.5

Measured IC50 of CC1CC(=O)Nc2ccccc2N1C(=O)c1ccccc1Cl (centres undefined) : 8.62

Measured IC50 of COc1cccc(C(=O)N2c3ccccc3NC(=O)CC2C)c1 (centres undefined) : 87.9

Measured IC50 of CC1CC(=O)Nc2ccccc2N1C(=O)c1ccccc1 (centres undefined) : 17.5

Measured IC50 of CC1CC(=O)Nc2ccccc2N1C(=O)c1cccc(F)c1 (centres undefined) : 76.3

Measured IC50 of COc1ccc(C(=O)N2c3ccccc3NC(=O)CC2C)cc1 (centres undefined) : 54.6

Measured IC50 of CC1CC(=O)Nc2ccccc2N1C(=O)c1ccc(F)cc1 (centres undefined) : 25
